The origin of these recorded values is the Immune Epitope Database (IEDB).

- systemTested: HLA-A*69:01
- testSummary: IEDB peptide-MHC binding, purified MHC/competitive/fluorescence; filed as Kd, often an IC50 or EC50 that approximates it; bounds were set here for any values at or beyond the usual limits of such assays
- protocolConditions: source organism: Influenza A virus (A/ruddy turnstone/Delaware/67/1998(H12N4))
assayMetric: Kd

Entry IVFMWAIHH , Kd reported as ≥ 20 µM

* * *

- systemTested: HLA-B*08:02
- testSummary: IEDB peptide-MHC binding, purified MHC/direct/fluorescence; filed as Kd, often an IC50 or EC50 that approximates it; bounds were set here for any values at or beyond the usual limits of such assays
- protocolConditions: source organism: Variola virus
pKd: −log10 of the molar value.
assayMetric: pKd

Lab entry: HLA-B*08:02 assay, sequence YKDANISMY , pKd = ≤ 4.70

* * *

- systemTested: HLA-A*26:02
- testSummary: IEDB peptide-MHC binding, purified MHC/competitive/fluorescence; filed as Kd, often an IC50 or EC50 that approximates it; bounds were set here for any values at or beyond the usual limits of such assays
- protocolConditions: source organism: Vibrio parahaemolyticus RIMD 2210633
assayMetric: Kd (nM)
Response body: numeric value in nM, unit text excluded.

Lookup result for ILRPLGIEY ; measured Kd: 403

* * *

- systemTested: HLA-B*27:05
- testSummary: IEDB peptide-MHC binding, purified MHC/direct/fluorescence; filed as Kd, often an IC50 or EC50 that approximates it; bounds were set here for any values at or beyond the usual limits of such assays
- protocolConditions: source organism: Coxiella burnetii
assayMetric: Kd

What the record says about ITLYEYDHF : Kd is ≥ 20 µM

* * *

- systemTested: HLA-C*03:03
- testSummary: IEDB peptide-MHC binding, purified MHC/direct/fluorescence; filed as Kd, often an IC50 or EC50 that approximates it; bounds were set here for any values at or beyond the usual limits of such assays
- protocolConditions: source organism: Mus musculus
assayMetric: Kd (nM)
Just the number in nM, nothing appended.

Quick note, Kd for VALFSSCPV landed at 2

* * *

- systemTested: HLA-B*18:01
- testSummary: IEDB peptide-MHC binding, purified MHC/direct/fluorescence; filed as Kd, often an IC50 or EC50 that approximates it; bounds were set here for any values at or beyond the usual limits of such assays
- protocolConditions: source organism: Influenza A virus (A/chicken/CA/375TR/2002(H6N2))
assayMetric: Kd (nM)
Express the result in nM but write the number alone.

According to the records, this sequence REITFHGAK displays Kd of 1220

* * *

- systemTested: HLA-A*01:01
- testSummary: IEDB peptide-MHC binding, purified MHC/direct/fluorescence; filed as Kd, often an IC50 or EC50 that approximates it; bounds were set here for any values at or beyond the usual limits of such assays
- protocolConditions: source organism: Burkholderia mallei
Some sequences, each annotated with its measured Kd.

# sequence IQRRGAQFQ ; its Kd = ≥ 20000 nM

# evaluate next
Looking up IYDFYNAEY , I see its Kd listed as 1760 nM

* * *

Each item that follows carries a reported Kd.
- systemTested: HLA-A*02:01
- testSummary: IEDB peptide-MHC binding, purified MHC/competitive/radioactivity; filed as Kd, often an IC50 or EC50 that approximates it; bounds were set here for any values at or beyond the usual limits of such assays
- protocolConditions: source organism: Dengue virus 4 Philippines/H241/1956
Dear colleague, please return just the value in nM, with no unit written.

What the record says about CLWPKTHTL : Kd is 13.8

// recorded Kd for LMLVALLGA : 10400

Next:
// ALWDVPSPA : Kd value = 2.72

* * *

- systemTested: HLA-A*68:02
- testSummary: IEDB peptide-MHC binding, purified MHC/competitive/fluorescence; filed as Kd, often an IC50 or EC50 that approximates it; bounds were set here for any values at or beyond the usual limits of such assays
- protocolConditions: source organism: Salmonella enterica subsp. enterica serovar Typhi
assayMetric: Kd

Form: sequence = NVHRSQFAQ ; Kd = ≥ 20 µM

* * *

- systemTested: HLA-B*83:01
- testSummary: IEDB peptide-MHC binding, purified MHC/competitive/fluorescence; filed as Kd, often an IC50 or EC50 that approximates it; bounds were set here for any values at or beyond the usual limits of such assays
- protocolConditions: source organism: Influenza A virus (A/Fort Monmouth/1/1947-mouse adapted(H1N1))
assayMetric: Kd

GET /value?item= GTFEFTSFF &field=Kd returns ≥ 5 µM

* * *

- systemTested: HLA-B*18:01
- testSummary: IEDB peptide-MHC binding, purified MHC/direct/fluorescence; filed as Kd, often an IC50 or EC50 that approximates it; bounds were set here for any values at or beyond the usual limits of such assays
- protocolConditions: source organism: Salmonella enterica
pKd: −log10 of the molar value.
assayMetric: pKd

pKd in this record for NVHRSQFAQ : ≤ 4.70

* * *

- systemTested: HLA-A*29:02
- testSummary: IEDB peptide-MHC binding, purified MHC/direct/fluorescence; filed as Kd, often an IC50 or EC50 that approximates it; bounds were set here for any values at or beyond the usual limits of such assays
- protocolConditions: source organism: Reston ebolavirus
pKd: −log10 of the molar value.
assayMetric: pKd

pKd recorded for this sequence, RTYSLLNRK , is ≤ 4.70

* * *

- systemTested: HLA-A*31:01
- testSummary: IEDB peptide-MHC binding, purified MHC/direct/fluorescence; filed as Kd, often an IC50 or EC50 that approximates it; bounds were set here for any values at or beyond the usual limits of such assays
- protocolConditions: source organism: Influenza A virus (A/New Caledonia/20/1999(H1N1))
pKd: −log10 of the molar value.
assayMetric: pKd

For record WMACHSAAF the listed pKd is ≤ 4.70

* * *

- systemTested: HLA-A*68:02
- testSummary: IEDB peptide-MHC binding, purified MHC/competitive/radioactivity; filed as Kd, often an IC50 or EC50 that approximates it; bounds were set here for any values at or beyond the usual limits of such assays
- protocolConditions: source organism: Vaccinia virus Copenhagen
assayMetric: pKd
Quick note: pKd means taking -log10 of the concentration in moles per liter.

sequence LMDSIFVST , pKd observed: 5.75

* * *

- systemTested: HLA-B*15:01
- testSummary: IEDB peptide-MHC binding, purified MHC/competitive/fluorescence; filed as Kd, often an IC50 or EC50 that approximates it; bounds were set here for any values at or beyond the usual limits of such assays
- protocolConditions: source organism: Reston ebolavirus
assayMetric: Kd

Reported Kd for RTYSLLNRK was ≥ 20 µM

* * *

- systemTested: HLA-B*15:17
- testSummary: IEDB peptide-MHC binding, purified MHC/direct/fluorescence; filed as Kd, often an IC50 or EC50 that approximates it; bounds were set here for any values at or beyond the usual limits of such assays
- protocolConditions: source organism: Influenza A virus (A/New Caledonia/20/1999(H1N1))
assayMetric: Kd (nM)
Give the quantity in nM, number only.

Note to self: Kd recorded for WMACHSAAF was 189

* * *

- systemTested: HLA-B*08:02
- testSummary: IEDB peptide-MHC binding, purified MHC/direct/fluorescence; filed as Kd, often an IC50 or EC50 that approximates it; bounds were set here for any values at or beyond the usual limits of such assays
- protocolConditions: source organism: Francisella tularensis subsp. tularensis FSC033
assayMetric: Kd

# lookup: REIGDISYL on HLA-B*08:02, Kd = ≥ 20 µM

* * *

- systemTested: HLA-A*26:01
- testSummary: IEDB peptide-MHC binding, purified MHC/competitive/radioactivity; filed as Kd, often an IC50 or EC50 that approximates it; bounds were set here for any values at or beyond the usual limits of such assays
- protocolConditions: source organism: Mammarenavirus brazilense
assayMetric: pKd
Bear in mind: pKd is minus log10 of a mol/L concentration; give just that figure.

pKd measured on LLSEMLNKEY = 4.80

* * *

Reported Kd by item:
- systemTested: HLA-A*31:01
- testSummary: IEDB peptide-MHC binding, purified MHC/competitive/radioactivity; filed as Kd, often an IC50 or EC50 that approximates it; bounds were set here for any values at or beyond the usual limits of such assays
- protocolConditions: source organism: Mammarenavirus whitewaterense
Just the number please, in µM, no unit attached.

Kd reading for KCFANNQDER : 6.69

***
According to the records, this sequence KWMLISSELK displays Kd of 0.127

* * *

- systemTested: HLA-A*29:02
- testSummary: IEDB peptide-MHC binding, purified MHC/direct/fluorescence; filed as Kd, often an IC50 or EC50 that approximates it; bounds were set here for any values at or beyond the usual limits of such assays
- protocolConditions: source organism: Mammarenavirus juninense
pKd: −log10 of the molar value.
assayMetric: pKd

Measured pKd of ATDPVEMAL : ≤ 4.70

* * *

- systemTested: HLA-B*15:17
- testSummary: IEDB peptide-MHC binding, purified MHC/direct/fluorescence; filed as Kd, often an IC50 or EC50 that approximates it; bounds were set here for any values at or beyond the usual limits of such assays
- protocolConditions: source organism: Giardia lamblia ATCC 50803
assayMetric: pKd
Please report pKd as the negative decimal logarithm of the molar concentration, giving only the number.

Form: sequence = VAAKGAPAL ; pKd = 8.15
